# Experimental Target: CRTH2 receptor (hCRTH2) (Homo sapiens, UniProt Q9Y5Y4)
# Construct: expressed in transfected cells; host or cells: HEK cells (HEK-hCRTH2 cell line), membranes
# Sequence (Q9Y5Y4 whole entry): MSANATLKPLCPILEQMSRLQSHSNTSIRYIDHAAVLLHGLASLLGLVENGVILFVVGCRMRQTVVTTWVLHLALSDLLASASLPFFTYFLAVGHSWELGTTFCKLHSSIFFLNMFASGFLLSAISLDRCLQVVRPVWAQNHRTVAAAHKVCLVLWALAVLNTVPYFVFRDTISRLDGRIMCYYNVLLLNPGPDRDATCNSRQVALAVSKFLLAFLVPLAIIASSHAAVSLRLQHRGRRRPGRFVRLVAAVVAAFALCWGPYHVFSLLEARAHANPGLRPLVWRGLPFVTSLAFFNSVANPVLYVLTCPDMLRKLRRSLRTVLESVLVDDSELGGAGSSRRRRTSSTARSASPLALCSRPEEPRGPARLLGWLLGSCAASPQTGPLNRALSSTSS
# Test Method Notes: Radioligand binding assay ([3H]PGD2 competition, membranes of HEK-hCRTH2 cell line)
# Run Parameters: 3.0 nM [3H]PGD2, HEK-hCRTH2 membranes, 60 min, room temperature; read-out: Ki
Readout Type: Ki

molecule="O=C(O)CCCCc1nc2cc(C3=NOC4(CC[C@@H](c5ccccc5)C4)C3)ccc2c(=O)n1-c1ccc(F)cc1 (single isomer, unassigned)" assay_result="≤ 10 nM"

Q) Which measured Ki belongs to O=C(O)CCCCc1nc2cc(-c3noc(C4Cc5ccccc5C4)n3)ccc2c(=O)n1-c1ccc(F)cc1 , tested on CRTH2 receptor (hCRTH2) (Homo sapiens, UniProt Q9Y5Y4)?
A) ≤ 10 nM

---

# Experimental Target: CRTH2 receptor (hCRTH2) (Homo sapiens)
# Construct: expressed in transfected cells; host or cells: HEK cells (HEK-hCRTH2 cell line), membranes
# Test Method Notes: Radioligand binding assay ([3H]PGD2 competition, membranes of HEK-hCRTH2 cell line)
# Run Parameters: Ki, 3.0 nM [3H]PGD2, HEK-hCRTH2 membranes, 60 min, room temperature
# Description: Competing ligands were diluted in dimethylsulfoxide (Me2SO) that was kept constant at 1% (v/v) of the final incubation volume. The reaction was initiated by the addition of 8-20 μg of membrane protein prepared from a HEK-hCRTH2 cell line. Total and non-specific binding were determined in the absence and the presence of 10 WI PGD2, respectively. […]
Readout Type: Ki

Example cases with answers are listed next.
molecule="O=C(O)CCCCc1nc2cc(C3=NOC(c4ccccc4)(c4ccccc4)C3)ccc2c(=O)n1-c1ccc(F)cc1 [Example 117]" experimental_target="CRTH2 receptor (hCRTH2) (Homo sapiens)" assay_result="10 to 50 nM"
molecule="CC1(c2nc3ccccc3o2)CC(c2ccc3c(=O)n(-c4ccc(F)cc4)c(CCCCC(=O)O)nc3c2)=NO1 (single isomer, unassigned) [Example 35G]" experimental_target="CRTH2 receptor (hCRTH2) (Homo sapiens)" assay_result="10 to 50 nM"
molecule="CC1(c2ccc(Cl)cc2)CC(c2ccc3c(=O)n(-c4ccc(F)cc4)c(CCCCC(=O)O)nc3c2)=NO1 (centres unmarked) [Example 120]" experimental_target="CRTH2 receptor (hCRTH2) (Homo sapiens)" assay_result="≤ 10 nM"
molecule="CC1(c2ccccc2)CC(c2ccc3c(=O)n(-c4ccc(F)cc4)c(CCCCC(=O)O)nc3c2)=NO1 (centres unmarked) [Example 15F]" experimental_target="CRTH2 receptor (hCRTH2) (Homo sapiens)" assay_result="≤ 10 nM"
molecule="CC1(c2cc(F)cc(F)c2)CC(c2ccc3c(=O)n(-c4ccc(F)cc4)c(CCCCC(=O)O)nc3c2)=NO1 (centres unmarked) [Example 125]" experimental_target="CRTH2 receptor (hCRTH2) (Homo sapiens)" assay_result="≤ 10 nM"

Q) Query (molecule): CC1(c2cccc(C#N)c2)CC(c2ccc3c(=O)n(-c4ccc(F)cc4)c(CCCCC(=O)O)nc3c2)=NO1 (centres unmarked) [Example 118] ; field requested: Ki
A) 10 to 50 nM

Q) Which Ki value belongs to CC1(c2cc(F)cc(F)c2)CC(c2ccc3c(=O)n(-c4ccc(F)cc4)c(CCCCC(=O)O)nc3c2)=NO1 (centres unmarked) [Example 126] ?
A) 10 to 50 nM

The measurements presented in this section are drawn from patent US8927559B2.
